Reference source: patent US9861575B2

Protocol text: Test Example 6: stability of respective vitamins on storage of infusion formulation of Example 11
Type: physicochemical
Settings: in infusion formulation of Example 11; percentage based on the mixed amount
Source text: In addition, the content is expressed as a percentage based on the mixed amount. From the results, it is considered that the infusion formulation of the present invention remains stable even when stored for a long time.
Structures can show the parent of a compound that is named as a salt.
Experimental readout: residual rate (content) immediately after sterilization (%)

>  <Compound>
Cc1cc2nc3c(=O)[nH]c(=O)nc-3n(C[C@H](O)[C@H](O)[C@H](O)COP(=O)([O-])O)c2cc1C.[Na+] [Vitamin B2, Riboflavin sodium phosphate]

>  <Value unit>
%

>  <Recorded number>
94.7

$$$$
>  <Compound>
Nc1nc2ncc(CNc3ccc(C(=O)N[C@@H](CCC(=O)O)C(=O)O)cc3)nc2c(=O)[nH]1 [Folic acid]

>  <Value unit>
%

>  <Recorded number>
95.8

$$$$
>  <Compound>
CC(C)(CO)[C@@H](O)C(=O)NCCCO [Panthenol]

>  <Value unit>
%

>  <Recorded number>
97.8

$$$$
>  <Compound>
O=C1O[C@H]([C@@H](O)CO)C(O)=C1O [Vitamin C, Ascorbic acid]

>  <Value unit>
%

>  <Recorded number>
96.1

$$$$
>  <Compound>
NC(=O)c1cccnc1 [Nicotinamide]

>  <Value unit>
%

>  <Recorded number>
100.9

$$$$
>  <Compound>
Cc1ncc(CO)c(CO)c1O.Cl [Vitamin B6, Pyridoxine hydrochloride]

>  <Value unit>
%

>  <Recorded number>
97.1

$$$$
>  <Compound>
O=C(O)CCCC[C@@H]1SC[C@@H]2NC(=O)N[C@@H]21 [Biotin]

>  <Value unit>
%

>  <Recorded number>
93.6

$$$$
>  <Compound>
Cc1ncc(C[n+]2csc(CCO)c2C)c(N)n1 [Vitamin B1, Thiamine hydrochloride]

>  <Value unit>
%

>  <Recorded number>
93.3

$$$$
